All values here come from patent US7030081B2.

# subject-of-test: muscle-type nicotinic receptors (Mus musculus, UniProt P02716+P04756+P09690)
# Construct: nicotinic currents recorded from cultured muscle cells (myotubes, I28); endogenous in cells
# Sequence (P04756 21-457): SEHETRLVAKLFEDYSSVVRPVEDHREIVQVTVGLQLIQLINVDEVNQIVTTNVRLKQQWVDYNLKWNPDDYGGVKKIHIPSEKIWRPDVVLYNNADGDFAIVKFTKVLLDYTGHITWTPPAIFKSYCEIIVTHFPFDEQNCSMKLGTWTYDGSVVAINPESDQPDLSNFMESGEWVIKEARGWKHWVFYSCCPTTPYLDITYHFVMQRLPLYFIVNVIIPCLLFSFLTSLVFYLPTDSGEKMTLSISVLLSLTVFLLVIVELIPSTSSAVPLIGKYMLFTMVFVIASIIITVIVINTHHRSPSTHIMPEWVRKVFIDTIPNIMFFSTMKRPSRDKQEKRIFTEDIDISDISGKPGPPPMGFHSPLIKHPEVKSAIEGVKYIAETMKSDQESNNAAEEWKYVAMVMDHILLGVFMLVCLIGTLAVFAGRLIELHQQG
# Sequence (P09690 24-501): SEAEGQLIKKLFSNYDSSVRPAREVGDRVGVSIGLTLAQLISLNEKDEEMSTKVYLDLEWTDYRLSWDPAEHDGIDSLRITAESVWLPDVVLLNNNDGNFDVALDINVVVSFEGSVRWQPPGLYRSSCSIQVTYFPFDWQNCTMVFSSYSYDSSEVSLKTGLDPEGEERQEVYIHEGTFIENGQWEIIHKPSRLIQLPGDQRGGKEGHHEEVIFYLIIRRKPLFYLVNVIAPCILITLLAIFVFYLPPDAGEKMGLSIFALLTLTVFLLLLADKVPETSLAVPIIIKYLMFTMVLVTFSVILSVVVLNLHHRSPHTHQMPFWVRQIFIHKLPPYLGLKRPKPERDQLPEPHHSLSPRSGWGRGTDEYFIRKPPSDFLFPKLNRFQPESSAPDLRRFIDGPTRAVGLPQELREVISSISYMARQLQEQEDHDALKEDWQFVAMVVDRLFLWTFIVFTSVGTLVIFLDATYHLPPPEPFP
# Sequence (P02716 25-520): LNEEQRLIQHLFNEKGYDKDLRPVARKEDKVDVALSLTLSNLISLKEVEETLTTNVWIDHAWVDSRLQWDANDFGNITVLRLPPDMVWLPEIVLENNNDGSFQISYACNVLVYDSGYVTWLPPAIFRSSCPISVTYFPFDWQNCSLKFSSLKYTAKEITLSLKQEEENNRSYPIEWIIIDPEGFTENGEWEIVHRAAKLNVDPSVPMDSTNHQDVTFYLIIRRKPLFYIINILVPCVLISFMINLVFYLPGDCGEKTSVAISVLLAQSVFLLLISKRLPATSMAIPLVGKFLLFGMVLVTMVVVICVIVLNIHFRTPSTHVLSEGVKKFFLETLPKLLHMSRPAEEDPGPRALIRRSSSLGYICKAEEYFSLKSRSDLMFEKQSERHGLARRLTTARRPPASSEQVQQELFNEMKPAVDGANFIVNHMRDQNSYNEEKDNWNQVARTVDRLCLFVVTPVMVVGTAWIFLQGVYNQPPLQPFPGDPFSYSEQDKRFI
# Sequence (P04760 23-519 partner): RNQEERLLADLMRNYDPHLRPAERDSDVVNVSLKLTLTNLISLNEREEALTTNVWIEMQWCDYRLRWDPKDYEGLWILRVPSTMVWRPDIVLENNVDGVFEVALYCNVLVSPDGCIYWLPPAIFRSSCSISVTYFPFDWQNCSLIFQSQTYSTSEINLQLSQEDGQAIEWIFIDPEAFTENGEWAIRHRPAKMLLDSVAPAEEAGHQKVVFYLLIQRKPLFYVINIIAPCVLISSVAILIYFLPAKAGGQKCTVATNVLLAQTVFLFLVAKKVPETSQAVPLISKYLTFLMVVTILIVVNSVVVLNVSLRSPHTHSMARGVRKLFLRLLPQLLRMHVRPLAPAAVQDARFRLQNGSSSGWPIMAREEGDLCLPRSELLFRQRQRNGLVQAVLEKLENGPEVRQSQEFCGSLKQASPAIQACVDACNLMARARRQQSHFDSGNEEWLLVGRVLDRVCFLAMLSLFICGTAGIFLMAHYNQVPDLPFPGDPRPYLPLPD
# experimental-protocol: Patch-clamp recording of nicotinic currents in cultured muscle cells (myotubes, I28)
measured-attribute: pEC50
pEC50 is a log-scale quantity: -log10 of the concentration expressed in molar.

Could you share what pEC50 was measured for CN1CCCC1c1cccnc1 (stereo not shown) [Nicotine, nicotine, reference compound] , tested on muscle-type nicotinic receptors (Mus musculus, UniProt P02716+P04756+P09690)? 4.00
